Tested on: MOLM14
Assay: cell viability relative to vehicle control; higher = less cytotoxic;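 note: after 48 h exposure read by CellTiter-Glo luminescence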
Details: 10 µM; SRSF2 genotype: SRSF2 P95H/wt
Structures can show the parent of a compound that is named as a salt.
Measurement type: cell viability
Respond with the figure and its unit, in that order.

Exam item: Requested read-out: cell viability. Entry: O=C1CC[C@@]2(O)[C@H]3Cc4ccc(O)c5c4[C@@]2(CCN3CC2CC2)[C@H]1O5 [Naltrexone HCl]
Marked response: 99.9%

Exam item: Requested read-out: cell viability. Entry: `CN1[C@@H]2CC[C@H]1C[C@@H](OC(=O)[C@H](CO)c1ccccc1)C2`
Marked response: 99.2%

Exam item: Requested read-out: cell viability. Entry: CCC1(c2ccc(N)cc2)CCC(=O)NC1=O (stereo unspecified) [Aminoglutethimide (Cytadren)]
Marked response: 99.8%

Exam item: Requested read-out: cell viability. Entry: `c1cc2c(cc1[C@H]1OC[C@H]3[C@@H]1CO[C@@H]3c1ccc3c(c1)OCO3)OCO2`
Marked response: 98.8%

Exam item: Requested read-out: cell viability. Entry: `ClC(Cl)=C(c1ccc(Cl)cc1)c1ccc(Cl)cc1`
Marked response: 96.8%

Exam item: Requested read-out: cell viability. Entry: CC(C)c1ccc2c(c1O)CC[C@H]1C3=C(CC[C@]21C)C(=O)OC3 [Triptophenolide]
Marked response: 99.4%

Exam item: Requested read-out: cell viability. Entry: O=C(O)CCCCCCCCCO [10-Hydroxydecanoic acid]
Marked response: 97.9%

Exam item: Requested read-out: cell viability. Entry: CC(C)=CCCC(C)(O)C1CCC2(C)C1C(O)CC1C3(C)CCC(O)C(C)(C)C3C(OC3OC(CO)C(O)C(O)C3O)CC12C [20(S)-Ginsenoside Rh1]
Marked response: 102%

Exam item: Requested read-out: cell viability. Entry: `C[C@H]1CC[C@@H]2N(C1)C[C@H]1[C@@H]3C[C@H]4[C@@H](C[C@H](O)[C@H]5C[C@@H](O)CC[C@@]54C)[C@@H]3CC[C@@H]1[C@]2(C)O`
Marked response: 104%

Exam item: Requested read-out: cell viability. Entry: `CCN1C[C@]2(COC)CC[C@H](OC)[C@]34C1[C@H]([C@H](OC)[C@H]23)[C@@]1(OC(C)=O)C[C@H](OC)[C@@]2(O)C[C@@H]4[C@@H]1[C@H]2OC(=O)c1ccc(OC)cc1`
Marked response: 91.8%

Exam item: Requested read-out: cell viability. Entry: `CC(=O)Nc1ccc(Cc2ccc(NC(C)=O)cc2)cc1`
Marked response: 106%

Exam item: Requested read-out: cell viability. Entry: CN(C)[C@@H]1C(=O)C(C(N)=O)=C(O)[C@@]2(O)C(=O)C3=C(O)c4c(O)cccc4[C@@](C)(O)[C@H]3[C@H](O)[C@@H]12 [Oxytetracycline dihydrate]
Marked response: 97.6%

Exam item: Requested read-out: cell viability. Entry: `O=c1[nH]c2ccccc2n1CCCN1CCC(n2c(=O)[nH]c3cc(Cl)ccc32)CC1`
Marked response: 92.4%

Exam item: Requested read-out: cell viability. Entry: `O=C(CBr)N1CC([N+](=O)[O-])([N+](=O)[O-])C1`
Marked response: 88.6%

Exam item: Requested read-out: cell viability. Entry: CCN(CC)CCOC(=O)C(O)(c1ccccc1)c1ccccc1 [Benactyzine hydrochloride]
Marked response: 92.6%

Exam item: Requested read-out: cell viability. Entry: O=P1(NCCCl)OCCCN1CCCl (stereo unspecified) [Ifosfamide]
Marked response: 104%

###

Kindly supply the reported cell viability values for the records listed here.
Test system: MOLM14
Assay: cell viability relative to vehicle control; higher = less cytotoxic
Conditions: 10 µM; SRSF2 genotype: SRSF2 wt/wt
Respond with the figure and its unit, in that order.

Exam item: Recall the recorded cell viability for c1cc2c(cc1[C@H]1OC[C@H]3[C@@H]1CO[C@@H]3c1ccc3c(c1)OCO3)OCO2 [Sesamin (Fagarol)] with MOLM14 and state it.
Marked response: 105%

Exam item: Recall the recorded cell viability for CCN1CC2(OC(=O)c3ccccc3NC(C)=O)CCC(OC)C34C1C(CC23)C1(O)CC(OC)C2CC4C1(O)C2OC (centres undefined) [Lappaconitine] with MOLM14 and state it.
Marked response: 105%

Exam item: Recall the recorded cell viability for O=C(O)C(=O)c1cn(Cc2ccccc2)c2ccc(-c3ccc(OC(F)(F)F)cc3)cc12 [Tiplaxtinin (PAI-039)] with MOLM14 and state it.
Marked response: 93.8%

Exam item: Recall the recorded cell viability for `Cc1c(N[C@@H](c2nnc(-c3ccc(C#N)cc3)o2)[C@H](C)O)ccc(C#N)c1Cl` with MOLM14 and state it.
Marked response: 100%

###

System: K562
Assay: cell viability relative to vehicle control; higher = less cytotoxic
Details: 10 µM; SRSF2 genotype: SRSF2 wt/wt
Structures can show the parent of a compound that is named as a salt.
Kindly supply the reported cell viability values for the records listed here.
Write down the numeric answer in % and omit the unit.

Exam item: Requested read-out: cell viability. Entry: O=P1(NCCCl)OCCCN1CCCl (stereo not drawn) [Ifosfamide]
Marked response: 104

Exam item: Requested read-out: cell viability. Entry: `CN(C)CCc1ccc(O)cc1`
Marked response: 103

Exam item: Requested read-out: cell viability. Entry: `Cc1c(Cl)c(OCC(=O)N2CCN(C)CC2)nc2sc(C(=O)NC3CC3)c(N)c12`
Marked response: 66

Exam item: Requested read-out: cell viability. Entry: `CC(C)c1cc2c(c(O)c1O)[C@@]1(C(=O)O)CCCC(C)(C)[C@@H]1CC2`
Marked response: 86.6

Exam item: Requested read-out: cell viability. Entry: `O=C1C=CC[C@@H]2[C@H]3CCCN4CCC[C@@H](CN12)[C@@H]34`
Marked response: 102

Exam item: Requested read-out: cell viability. Entry: `Nc1ncnc2c1ccn2[C@@H]1O[C@H]([C@H](O)c2ccccc2)[C@@H](O)[C@H]1O`
Marked response: 79.6

Exam item: Requested read-out: cell viability. Entry: COc1cc(C2OCC3C(c4cc(OC)c(OC5OC(CO)C(O)C(O)C5O)c(OC)c4)OCC23)cc(OC)c1OC1OC(CO)C(O)C(O)C1O (stereo not drawn) [Eleutheroside E]
Marked response: 101

Exam item: Requested read-out: cell viability. Entry: O=C(O[C@H]1C[N+]2(CCCOc3ccccc3)CCC1CC2)C(O)(c1cccs1)c1cccs1 [Aclidinium Bromide]
Marked response: 101

Exam item: Requested read-out: cell viability. Entry: `CC[C@@H](C(N)=O)N1CCCC1=O`
Marked response: 102

Exam item: Requested read-out: cell viability. Entry: O=C1CC[C@@]2(O)[C@H]3Cc4ccc(O)c5c4[C@@]2(CCN3CC2CC2)[C@H]1O5 [Naltrexone HCl]
Marked response: 97.7

Exam item: Requested read-out: cell viability. Entry: O=P1(N(CCCl)CCCl)NCCCO1 (stereo not drawn) [Cyclophosphamide monohydrate]
Marked response: 108

Exam item: Requested read-out: cell viability. Entry: `CC(=O)OC(C)(C)/C=C/C(=O)[C@](C)(O)[C@H]1[C@H](O)C[C@@]2(C)[C@@H]3CC=C4[C@H](C[C@H](O)C(=O)C4(C)C)[C@]3(C)C(=O)C[C@]12C`
Marked response: 28.1

Exam item: Requested read-out: cell viability. Entry: `COC(=O)C1=CCCN(C)C1`
Marked response: 97.5

###

Kindly supply the reported cell viability values for the records listed here.
Test system: OCI-AML2
Assay: cell viability relative to vehicle control; higher = less cytotoxic
Conditions: 10 µM; SRSF2 genotype: wt/wt
Counter-ions that a name gives are not always drawn.
Respond with the figure and its unit, in that order.

Exam item: Requested read-out: cell viability. Entry: `C[C@]12CC[C@H]3[C@@H](CCC4=CC(=O)C=C[C@@]43C)[C@@H]1CC[C@@H]2O`
Marked response: 111%

Exam item: Requested read-out: cell viability. Entry: CC12NC(Cc3ccccc31)c1ccccc12 (single isomer, unassigned; (+)) [(+)-MK 801 maleate]
Marked response: 99.1%

Exam item: Requested read-out: cell viability. Entry: CN(C)C1C(=O)C(C(N)=O)=C(O)C2(O)C(=O)C3=C(O)c4c(O)cccc4C(C)(O)C3CC12 (centres undefined) [Tetracycline hydrochloride]
Marked response: 95.9%

Exam item: Requested read-out: cell viability. Entry: COc1c(C)c(O)cc2[o+]c(-c3ccccc3)ccc12.[O-][Cl+3]([O-])([O-])[O-] [Dracohodin perochlorate]
Marked response: 84.1%

###

Test system: OCI-AML2
Test: cell viability relative to vehicle control; higher = less cytotoxic
Settings: 10 µM; SRSF2 genotype: wt/wt
Structures can show the parent of a compound that is named as a salt.
Measurement type: cell viability (%)
Write down the numeric answer in % and omit the unit.

Exam item: Requested read-out: cell viability. Entry: CCCCCCC[n+]1ccc(-c2cc[n+](CCCCCCC)cc2)cc1 [DHBP dibromide]
Marked response: 52.4

Exam item: Requested read-out: cell viability. Entry: `O=C(CBr)c1ccc(O)cc1`
Marked response: 103

Exam item: Requested read-out: cell viability. Entry: `CCN(CC)C(=O)c1ccc(C2=CC3(CCNCC3)Oc3cccc(O)c32)cc1`
Marked response: 89

Exam item: Requested read-out: cell viability. Entry: NCC(O)c1ccc(O)cc1 (racemic) [(+,-)-Octopamine HCl]
Marked response: 97.3

Exam item: Requested read-out: cell viability. Entry: C[C@@]12N[C@@H](Cc3ccccc31)c1ccccc12 [(-)-MK 801 maleate]
Marked response: 90.7

Exam item: Requested read-out: cell viability. Entry: OC(CNc1ccccc1)Cn1c2ccc(Br)cc2c2cc(Br)ccc21 (stereo not drawn)
Marked response: 83.5

Exam item: Requested read-out: cell viability. Entry: `CN(C)[C@@H]1C(=O)C(C(N)=O)=C(O)[C@@]2(O)C(=O)C3=C(O)c4c(O)cccc4[C@@](C)(O)[C@H]3[C@H](O)[C@@H]12`
Marked response: 90

Exam item: Requested read-out: cell viability. Entry: `CN(C)CCc1ccc(O)cc1`
Marked response: 94.8

Exam item: Requested read-out: cell viability. Entry: `O=C/C=C/c1ccccc1`
Marked response: 102

Exam item: Requested read-out: cell viability. Entry: `C/C(O)=C(\C#N)C(=O)Nc1cc(Br)ccc1Br`
Marked response: 87.7

Exam item: Requested read-out: cell viability. Entry: `C/C(=C\c1csc(C)n1)[C@@H]1C[C@@H]2O[C@@H]2CCC[C@H](C)[C@H](O)[C@@H](C)C(=O)C(C)(C)[C@@H](O)CC(=O)O1`
Marked response: 8.21

Exam item: Requested read-out: cell viability. Entry: C[C@]12CCC(=O)C[C@@H]1CC[C@@H]1[C@@H]2CC[C@]2(C)[C@@H](O)CC[C@@H]12 [Dihydrotestosterone (DHT)]
Marked response: 101

Exam item: Requested read-out: cell viability. Entry: `O=c1[nH]c2ccccc2n1C1CCN(Cc2ccc(-c3[nH]c4cc5ncnc5cc4nc3-c3ccccc3)cc2)CC1`
Marked response: 47.9

Exam item: Requested read-out: cell viability. Entry: CN1CCCCC1Cn1cc(C(=O)c2cc([N+](=O)[O-])ccc2I)c2ccccc21 (stereo not drawn)
Marked response: 65.5

Exam item: Requested read-out: cell viability. Entry: `c1csc(-c2ccc(-c3cccs3)s2)c1`
Marked response: 85.4

Exam item: Requested read-out: cell viability. Entry: CC(=O)O[C@H]1C[C@@H]2CC[C@@H]3[C@H](CC[C@@]4(C)[C@H]3C[C@H]([N+]3(C)CCCCC3)[C@@H]4OC(C)=O)[C@@]2(C)C[C@@H]1[N+]1(C)CCCCC1 [Pancuronium dibromide]
Marked response: 101

Exam item: Requested read-out: cell viability. Entry: `C#C[C@]1(O)C=C[C@H]2[C@@H]3CCC4=CC(=O)CC[C@@H]4[C@H]3CC[C@@]21CC`
Marked response: 94.8

Exam item: Requested read-out: cell viability. Entry: `Cc1ccccc1-n1c(CF)nc2ccc(N)cc2c1=O`
Marked response: 94.4
